- TARGET DESC: ToxR GPA (GPA transmembrane domain)
- EXPERIMENT NOTES: ToxR GPA heterodimer formation (β-galactosidase reporter)
- Format: cell-based
- CONDITION DESCRIPTION: previous all L and all D GPA results fitted to this model; read-out: IC50 of the interaction with the GPA transmembrane domain
QUANTITY NAME: IC50 (nM)
Note: unit nM is implicit; provide only the numeric part.

Provide IC50 value for the following sequence: KKITLIIFGVMAGVIGT [all L GPA, reference compound]
360
